Assay overview: NCI Yeast Anticancer Drug Screen. Data for the rad50 strain (AID 155);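 also: 0% = growth of vehicle-only cultures of the same strain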
Run conditions: S. cerevisiae rad50 strain growth inhibition; at 33.0 µM; active compounds read high
The panel holds about 79,000 compounds, 15% with a hit somewhere; the sample as a whole holds those more often.
Readings of growth inhibition for the listed molecules
API: value field is a number in %; no unit string.

# annotated cases, reported growth inhibition shown
{"Molecule": "c1c(N2CCOCC2)ssc1=[N+]1CCOCC1", "growth inhibition, %": -3}
{"Molecule": "COc1cc2ccccc2c2cc([N+](=O)[O-])oc12", "growth inhibition, %": 91}
{"Molecule": "Nc1ccc(Cl)cc1C(=O)c1ccccc1", "growth inhibition, %": 57}
{"Molecule": "CCc1cccc(C(C)C)c1NC1=C([n+]2ccc(C)cc2)C(=O)c2ccccc2C1=O", "growth inhibition, %": 63}

[ask] May I ask what growth inhibition has been recorded for COc1cccc2c1C(=O)c1c(O)c3c(c(O)c1C2=O)C[C@@](O)(C(C)=O)C[C@@H]3OC1CC(N)C(OC2CC(O)C(O)C(C)O2)C(C)O1 (stereo not given in full) ?
[reply] 28

[ask] May I ask what growth inhibition has been recorded for Cc1c(N)nc([C@H](CC(N)=O)NC[C@H](N)C(N)=O)nc1C(=O)N[C@H](C(=O)N[C@H](C)[C@@H](O)[C@H](C)C(=O)N[C@H](C(=O)NCCc1nc(-c2nc(C(=O)NCCC[S+](C)C)cs2)cs1)[C@@H](C)O)C(OC1OC(CO)C(O)C(O)C1OC1OC(CO)C(O)C(OC(N)=O)C1O)c1cnc[nH]1 (stereo not given in full) ?
[reply] 94

[ask] May I ask what growth inhibition has been recorded for [Pt].c1ccc(P(CCP(c2ccccc2)c2ccccc2)CCP(c2ccccc2)c2ccccc2)cc1 ?
[reply] 94

[ask] May I ask what growth inhibition has been recorded for O=C1C=CC(=O)C1(Br)Br ?
[reply] 94

* * *

Readings of growth inhibition for the listed molecules
Assay overview: NCI Yeast Anticancer Drug Screen. Data for the mec2-1 strain (AID 157)
Run conditions: S. cerevisiae mec2-1 strain, at 50.0 µM, active compounds read high
This is part of a sample that, as a whole, favours compounds with a hit. Of some 79,000 tested, about 15% had one in any assay.
API: value field is a number in %; no unit string.

# annotated cases, reported growth inhibition shown
{"Molecule": "COc1cc(C2c3cc4c(cc3[C@@H](Nc3ccc(N)cc3)C3COC(=O)[C@H]23)OCO4)cc(OC)c1O (stereo partly specified)", "growth inhibition / %": 90}
{"Molecule": "C=C[C@H]1CN2CC[C@H]1C[C@@H]2[C@@H](O)c1ccnc2ccccc12", "growth inhibition / %": -40.6}
{"Molecule": "COc1ccc(C(Cc2ccc(Cl)c(Cl)c2)NCCO)cc1 (stereo unspecified)", "growth inhibition / %": 23.3}

[ask] May I ask what growth inhibition has been recorded for O=C(NNC(=O)OCC(Cl)(Cl)Cl)OCC(Cl)(Cl)Cl ?
[reply] 20.9

[ask] May I ask what growth inhibition has been recorded for CC(=O)OC1CCC2(C)C(CCC3C4=CCC(C5=CC(=O)OC5)C4(C)CCC32)C1 (stereo unspecified) ?
[reply] 81.8

[ask] May I ask what growth inhibition has been recorded for CN1CN(c2ccccc2)C2(CCN(C3Nc4ccccc4O3)CC2)C1=O (stereo unspecified) ?
[reply] 44.5

[ask] May I ask what growth inhibition has been recorded for C[N+]1(CCCl)CC[N+](C)(CCCl)CC1 (stereo unspecified) ?
[reply] 96.7

* * *

Assay overview: NCI Yeast Anticancer Drug Screen. Data for the rad50 strain (AID 155);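 also: 0% = growth of vehicle-only cultures of the same strain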
Run conditions: S. cerevisiae rad50 strain growth inhibition; at 11.0 µM; active compounds read high
Compounds without any hit were thinned out: in the full panel of roughly 79,000, 15% have a hit.
Mark TRUE for reported growth inhibition of 20% or greater; mark FALSE for anything smaller.

Use the examples below as a reference point.
{"Compound": "C[C@]12CCc3nonc3C1CC[C@@H]1C2CC[C@]2(C)C(=O)CCC12 (stereo not given in full)", "Discrete label": "TRUE"}
{"Compound": "CCCN(CCC)c1c([N+](=O)[O-])cc(S(N)(=O)=O)cc1[N+](=O)[O-]", "Discrete label": "TRUE"}
{"Compound": "O=[N+]([O-])c1cc(S(=O)(=O)F)ccc1Cl", "Discrete label": "TRUE"}
{"Compound": "CC1=C(CO)C2=C(C)C3(CC3)[C@@](C)(O)C(=O)C2=C1", "Discrete label": "FALSE"}
{"Compound": "CNC(=O)ON(C(C)=O)C(=O)NC", "Discrete label": "FALSE"}

[ask] Is reported growth inhibition greater than or equal to 20% here: CC1CCC2(NC1)OC1CC3C4CCC5CC(OC6OC(CO)C(OC7OC(CO)C(O)C(OC8OCC(O)C(O)C8O)C7OC7OC(CO)C(O)C(O)C7O)C(O)C6O)CCC5(C)C4CCC3(C)C1C2C (stereo not given)
[reply] FALSE

[ask] Is reported growth inhibition greater than or equal to 20% here: CC[C@@]1(O)C(=O)OCc2c1cc1n(c2=O)Cc2cc3c(NC(=O)CN)cccc3nc2-1
[reply] TRUE

[ask] Is reported growth inhibition greater than or equal to 20% here: C[CH2][Sn]1([CH2]C)[O]C2C(O)OC(CO)C(O)C2[O]1 (stereo not given)
[reply] FALSE

[ask] Is reported growth inhibition greater than or equal to 20% here: OC1CCCC2CCC[N-]C12.OC1CCCC2CCC[N-]C12.[O]=[V][OH] (stereo not given)
[reply] TRUE

[ask] Is reported growth inhibition greater than or equal to 20% here: COc1ccc(/C=C(/C)[N+](=O)[O-])cc1
[reply] TRUE

[ask] Is reported growth inhibition greater than or equal to 20% here: COC(=O)C(F)C(Br)C(=O)OC (stereo not given)
[reply] TRUE

[ask] Is reported growth inhibition greater than or equal to 20% here: CC(=O)[O-].O=C([CH-]C(=O)c1ccccc1)c1ccccc1.O=C([CH-]C(=O)c1ccccc1)c1ccccc1.[Sm+3]
[reply] TRUE

* * *

Assay overview: NCI Yeast Anticancer Drug Screen. Data for the mlh1 rad18 strain (AID 175)
Run conditions: S. cerevisiae mlh1 rad18 strain growth inhibition; at 5.0 µM (retest, dose inferred, filed as 0.5)
Compounds without any hit were thinned out: in the full panel of roughly 79,000, 15% have a hit. The source made the active and inactive calls. Rule as the data show it: active = growth inhibition above about 70%; inactive = the rest.
Pick one: Yes = active, No = inactive

Use the examples below as a reference point.
{"Compound": "O=C(O)Cc1ccc2c(c1)OCO2.[Ag]", "Discrete label": "Yes"}
{"Compound": "Fc1ccc(NP(=S)(Nc2ccc(F)cc2F)Nc2ccc(F)cc2F)c(F)c1", "Discrete label": "No"}
{"Compound": "O=C(CCl)Nc1cccc(Cl)c1", "Discrete label": "No"}
{"Compound": "O=C(O)c1cc([N+](=O)[O-])c(Cl)c([N+](=O)[O-])c1Cl", "Discrete label": "Yes"}
{"Compound": "CC(=O)O[C@H]1CC[C@H]2[C@@H]3CCC4=CC(=O)CC[C@@H]4[C@H]3CC[C@]12C", "Discrete label": "No"}

[ask] Returns: the outcome recorded for C=Cc1c2ccccc2cc2ccccc12 in this assay.
[reply] No

[ask] Returns: the outcome recorded for N#CC(C#N)=Cc1cccc([N+](=O)[O-])c1 in this assay.
[reply] No

[ask] Returns: the outcome recorded for COC1OC(COC(C)=O)C(OC(C)=O)C(OC(C)=O)[CH]1[Hg][I] (configuration not stated) in this assay.
[reply] Yes

[ask] Returns: the outcome recorded for c1cc2c(cc1C1OC[C@H]3[C@@H](c4ccc5c(c4)OCO5)OC[C@@H]13)OCO2 (some centres not stated) in this assay.
[reply] No

[ask] Returns: the outcome recorded for CCNc1ncc2ccccc2c1-c1ccc(N2CCN(CCCl)CC2)cc1 in this assay.
[reply] No

[ask] Returns: the outcome recorded for c1ccc2c(c1)[As]=c1ccccc1=[As]2 (configuration not stated) in this assay.
[reply] Yes

[ask] Returns: the outcome recorded for c1ccc2c(NCCCCCCNc3c4ccccc4nc4ccccc34)c3ccccc3nc2c1 in this assay.
[reply] No

[ask] Returns: the outcome recorded for COC(=O)C1=C(C(=O)OC)SC2(S1)C(C(=O)OC)=C(C(=O)OC)Sc1c2ssc1=O in this assay.
[reply] No

* * *

Assay overview: NCI Yeast Anticancer Drug Screen. Data for the wt1 strain (AID 149);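 also: 0% = growth of vehicle-treated wt1 cultures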
Run conditions: S. cerevisiae wt1 strain (SPY 50644) growth inhibition; at 100.0 µM; active compounds read high
This is part of a sample that, as a whole, favours compounds with a hit. Of some 79,000 tested, about 15% had one in any assay.
Mark 1 for reported growth inhibition of 60% or greater; mark -1 for anything smaller.

Use the examples below as a reference point.
{"Compound": "N#Cc1cc(N(CCCl)CCCl)c([N+](=O)[O-])cc1[N+](=O)[O-]", "Discrete label": -1}
{"Compound": "CC1=C[C@H]2O[C@@H]3C[C@H]4OC(=O)/C=C\\C=C\\C(C(C)O)OCC(O)C(C)CC(=O)OC[C@@]2(C[C@@H]1O)[C@]4(C)[C@@]31CO1 (stereo not given in full)", "Discrete label": 1}
{"Compound": "CC[PH+](CC)CC.CC[PH+](CC)CC.[Au]", "Discrete label": 1}
{"Compound": "CCC1(O)C(=O)OCc2c1cc1n(c2=O)Cc2cc3cc(Cl)ccc3nc2-1 (stereo not given)", "Discrete label": 1}
{"Compound": "CCOP(=O)(CC(C)P(=O)(OCC)OCC)OCC.C[CH2][Sn]([Cl])([Cl])[CH2]C (stereo not given)", "Discrete label": 1}

[ask] Is reported growth inhibition greater than or equal to 60% here: CCCCCCCCCCCCCCCCP(=O)(O)OP(=O)(O)OCC1OC(n2ccc(N)nc2=O)C(O)C1O (stereo not given)
[reply] -1

[ask] Is reported growth inhibition greater than or equal to 60% here: C[N+](CCCl)(CCCl)Cc1cccc2cccc([N+](=O)[O-])c12
[reply] -1

[ask] Is reported growth inhibition greater than or equal to 60% here: N#CC(C#N)=Cc1ccc(C#N)cc1
[reply] -1

[ask] Is reported growth inhibition greater than or equal to 60% here: C/C(=N\O)c1ccc2ccc3ccccc3c2c1
[reply] 1

[ask] Is reported growth inhibition greater than or equal to 60% here: C/C(=N\N=C(N)N)C(CN1CCOCC1)C(c1ccccc1)c1c(O)c2ccccc2oc1=O (stereo not given)
[reply] -1
